target: SOS1 protein (Homo sapiens); experiment: SOS1 degradation assay (Western blot) in NCI-H358 cells; format: cell-based; details: NCI-H358 (KRAS G12C), 24 h
Sequence (Q07889 whole entry): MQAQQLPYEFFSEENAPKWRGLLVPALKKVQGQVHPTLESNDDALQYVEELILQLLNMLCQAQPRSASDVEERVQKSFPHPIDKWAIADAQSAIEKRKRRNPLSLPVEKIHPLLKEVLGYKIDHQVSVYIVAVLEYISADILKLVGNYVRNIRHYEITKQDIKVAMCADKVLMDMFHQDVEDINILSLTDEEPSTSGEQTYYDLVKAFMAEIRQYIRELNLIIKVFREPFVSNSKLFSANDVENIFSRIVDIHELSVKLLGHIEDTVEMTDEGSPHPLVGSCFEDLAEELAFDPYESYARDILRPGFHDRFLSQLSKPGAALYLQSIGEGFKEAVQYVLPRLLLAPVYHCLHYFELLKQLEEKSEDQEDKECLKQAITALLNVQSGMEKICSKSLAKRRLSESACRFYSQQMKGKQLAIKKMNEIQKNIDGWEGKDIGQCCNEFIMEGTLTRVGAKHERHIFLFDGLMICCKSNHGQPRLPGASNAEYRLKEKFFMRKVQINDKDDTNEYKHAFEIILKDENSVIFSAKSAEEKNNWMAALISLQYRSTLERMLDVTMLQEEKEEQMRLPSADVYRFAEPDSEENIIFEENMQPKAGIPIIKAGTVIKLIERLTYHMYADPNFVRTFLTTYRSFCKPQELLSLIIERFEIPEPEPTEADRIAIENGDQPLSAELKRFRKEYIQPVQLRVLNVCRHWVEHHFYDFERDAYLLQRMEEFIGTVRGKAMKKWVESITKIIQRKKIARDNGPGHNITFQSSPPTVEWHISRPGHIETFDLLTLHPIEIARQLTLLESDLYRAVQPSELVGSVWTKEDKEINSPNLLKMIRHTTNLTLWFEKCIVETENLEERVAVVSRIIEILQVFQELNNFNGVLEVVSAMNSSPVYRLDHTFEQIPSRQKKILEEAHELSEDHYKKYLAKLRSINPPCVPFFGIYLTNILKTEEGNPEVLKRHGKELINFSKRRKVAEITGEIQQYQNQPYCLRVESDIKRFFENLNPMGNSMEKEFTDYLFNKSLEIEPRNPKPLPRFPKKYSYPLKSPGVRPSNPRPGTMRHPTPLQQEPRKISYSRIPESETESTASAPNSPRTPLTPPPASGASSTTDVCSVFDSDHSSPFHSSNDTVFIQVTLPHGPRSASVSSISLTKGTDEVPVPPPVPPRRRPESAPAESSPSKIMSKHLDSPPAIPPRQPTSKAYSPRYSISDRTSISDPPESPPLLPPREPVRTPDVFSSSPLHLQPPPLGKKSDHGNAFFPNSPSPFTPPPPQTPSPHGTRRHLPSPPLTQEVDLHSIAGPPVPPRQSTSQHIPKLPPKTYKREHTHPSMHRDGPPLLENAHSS
QUANTITY_KIND: Dmax

Example entries and their recorded answers appear below.
stdin: # input compound: CNCc1ccccc1-c1csc([C@@H](C)Nc2nc(C)nc3cc(OC)c([C@H]4CC[C@H](C(=O)N5CCC(CCCC6CCN(C(=O)c7ccc(Cl)c(N8CCC(=O)NC8=O)c7)CC6)CC5)CC4)cc23)c1 ; wanted: its Dmax
stdout: 50 to 80%

stdin: I have this compound here, COc1cc2nc(C)nc(N[C@H](C)c3cc(-c4c(Cl)cccc4CN(C)C)cs3)c2cc1[C@H]1CC[C@H](C(=O)N2CCN(CC3CCC4(CC3)CCN(C(=O)c3ccc(Cl)c(N5CCC(=O)NC5=O)c3)CC4)CC2)CC1 , and I need its recorded Dmax.
stdout: 80 to 100%

stdin: Which measured Dmax value corresponds to COc1cc2nc(C)nc(N[C@H](C)c3cc(-c4ccccc4CN(C)C)cs3)c2cc1[C@H]1CC[C@H](C(=O)N2CCN(CC3CCC4(CC3)CCN(C(=O)c3ccc(Cl)c(N5CCC(=O)NC5=O)c3)CC4)CC2)CC1 ?
stdout: 80 to 100%

stdin: Requested read-out: Dmax. Entry: COc1cc2nc(C)nc(N[C@H](C)c3cc(-c4c(Cl)cccc4CN(C)C)cs3)c2cc1[C@H]1CC[C@H](C(=O)N2CCC(CCOCC3CCN(C(=O)c4ccc(Cl)c(N5CCC(=O)NC5=O)c4)CC3)CC2)CC1
stdout: 80 to 100%

stdin: Which value of Dmax has been reported for CCNc1cc([C@@H](C)Nc2nc(C)nc3cc(OC)c([C@H]4CC[C@H](C(=O)N5CCN(CC6CCC7(CC6)CCN(C(=O)c6ccc(Cl)c(N8CCC(=O)NC8=O)c6)CC7)CC5)CC4)cc23)cc(C(F)(F)F)c1 in the records?
stdout: 30 to 50%

# next compound below
stdin: Recorded Dmax of CNCc1ccccc1-c1csc([C@@H](C)Nc2nc(C)nc3cc(OC)c([C@H]4CC[C@H](C(=O)N5CCN(CC6CCC7(CC6)CCN(C(=O)c6ccc(Cl)c(N8CCC(=O)NC8=O)c6)CC7)CC5)CC4)cc23)c1 , please.
stdout: 80 to 100%
